- Test system: MCF7 breast
- assay_overview: NCI tumour cell line growth inhibition, 48 h; in the data active = GI50 below about 0.43 µM; inactive = the rest
Bench note: report the call from yes (1) for active, no (0) for inactive

[
  {
    "compound": "COc1ccc(Cc2nc3cc(OC)c(OC)cc3c(=O)[nH]2)cc1",
    "category_label": "no (0)"
  },
  {
    "compound": "O=C(c1ccccc1)C(Br)C(Br)c1ccccc1 (stereo not drawn)",
    "category_label": "no (0)"
  },
  {
    "compound": "COc1cc(OC)cc(-c2ccc(-c3ccc(C(=N)N)cn3)s2)c1",
    "category_label": "no (0)"
  }
]

How did this test come out for `O=C(C(=O)c1cc(Br)ccc1O)c1cc(Br)ccc1O` ?
no (0)

How did this test come out for c1cncc(C2ONC3=NCCN32)c1 (stereo not drawn) ?
no (0)

How did this test come out for `COc1cc2c(cc1OCCCOc1ccc(-c3cc4ccccc4c4ccccc34)cc1)N=C[C@@H]1CCCN1C2=O` ?
yes (1)

How did this test come out for `O=C(OC[C@@H]1CO1)c1cccc2c(=O)c3ccccc3[nH]c12` ?
yes (1)

How did this test come out for `NC(N)=N/N=C(/c1ccccc1)c1ccccc1F` ?
yes (1)

How did this test come out for CNCc1cccc2c1OCCOCCOCCC(C)S(=O)(=O)c1ccc(cc1)-c1cnc(N)c(n1)C(=O)N2 (stereo not drawn) ?
no (0)

How did this test come out for `COc1cc(N(CCC#N)CCC#N)ccc1/C(N=Nc1ccc(C(=O)O)cc1)=N/NC(=O)c1cc(Br)ccc1O` ?
no (0)

How did this test come out for `C=C(Cn1c2ccccc2c(=O)c2ccccc21)c1ccc(C(=O)Nc2ccccc2N)cc1` ?
no (0)

How did this test come out for `O=C(N/N=C/c1ccc(F)cc1)c1ccc(C(F)(F)F)nc1Nc1cccc(C(F)(F)F)c1` ?
no (0)

How did this test come out for `COc1ccc(/C=C\c2cc(OC)c(OC)c(OC)c2)c(NS(=O)(=O)c2ccc(C(C)(C)C)cc2)c1O` ?
yes (1)

----------
- System: MDA-MB-231 breast
- assay_overview: NCI tumour cell line growth inhibition, 48 h; in the data active means GI50 below about 0.43 µM; inactive means the rest
Bench note: report the call from y = active, n = inactive

[
  {
    "compound": "COc1ccc(Cc2nc3cc(OC)c(OC)cc3c(=O)[nH]2)cc1",
    "category_label": "n"
  }
]

How did this test come out for C#Cc1cccc(NC(=O)C2CCCN(C(=O)CCl)C2)c1 (stereo not given) ?
n

How did this test come out for `OCC#Cc1ccccc1C#Cc1ccc(C#Cc2ccccc2)cc1` ?
n

How did this test come out for `C#CC#CC#CC#CC#CC#CC#CC#CC[C@@H]1OC[C@@H](COC(=O)O[C@@H](C(=O)O[C@H]2C[C@@]3(O)[C@@H](OC(=O)c4ccccc4)[C@@H]4[C@]5(OC(C)=O)CO[C@@H]5C[C@H](O)[C@@]4(C)C(=O)[C@H](OC(C)=O)C(=C2C)C3(C)C)[C@@H](NC(=O)c2ccccc2)c2ccccc2)O1` ?
n

How did this test come out for `COc1ccc(/C=C\c2cc(OC)c(OC)c(OC)c2)c(NS(=O)(=O)c2ccc(C(C)(C)C)cc2)c1O` ?
y

How did this test come out for `CCN(CC)CCNc1ccc([N+](=O)[O-])c2sc3cc(Cl)ccc3c(=O)c12` ?
n

How did this test come out for CNCc1cccc2c1OCCOCCOCCC(C)S(=O)(=O)c1ccc(cc1)-c1cnc(N)c(n1)C(=O)N2 (stereo not given) ?
n

How did this test come out for `CCSc1ncc(Br)c(Sc2nc(N)nc3nc[nH]c23)n1` ?
n

How did this test come out for `CCCCC[C@@H](C/C=C/CCC(=O)NC/C(=C/Cl)[C@H]1C(=O)C(C)(C)C(=O)[C@@H](C)[C@@]1(C)O)OC` ?
n

How did this test come out for `O=C(N/N=C/c1ccc(F)cc1)c1ccc(C(F)(F)F)nc1Nc1cccc(C(F)(F)F)c1` ?
n

----------
This listing pairs compounds with measured TGI.
- Tested on: K-562 leukemia
- assay_overview: NCI tumour cell line growth inhibition, 48 h

Worked set:
[
  {
    "compound": "COc1ccc(C(=O)O/N=C2/CCCCC2CN(C)C)cc1 (stereo not drawn)",
    "result": "> 100 µM"
  },
  {
    "compound": "O=C(OC[C@@H]1CO1)c1cccc2c(=O)c3ccccc3[nH]c12",
    "result": "> 100 µM"
  },
  {
    "compound": "COc1c(O)c2c3c(c1OC)-c1ccccc1CC3N(S(=O)(=O)c1ccc(C)cc1)CC2 (stereo not drawn)",
    "result": "7.65 µM"
  },
  {
    "compound": "C#CCOC(=O)C(=[N+]=[N-])C(=O)CC(C)C",
    "result": "> 10 µM"
  },
  {
    "compound": "COC(=O)c1sc(=NC(=S)N2CCCCC2)sc1C(=O)OC",
    "result": "> 100 µM"
  },
  {
    "compound": "C=C1CC/C=C(\\C)CC[C@H](C(=C)C)[C@@H](O)/C=C(/CO)CCC1O (stereo partly drawn)",
    "result": "69.7 µM"
  },
  {
    "compound": "O=C(/C(=C/c1ccc(O)cc1)c1ccccc1)c1ccccc1",
    "result": "44.4 µM"
  },
  {
    "compound": "O=C(O)C1(C(O)c2ccccc2)SCCCS1 (stereo not drawn)",
    "result": "> 10 µM"
  }
]

As a next step, examine the compound that follows.
Name the recorded TGI for `COC(=O)[C@H](Cc1cn(C)cn1)NC(=O)[C@@H](NC(=O)Nc1cc(C(F)(F)F)cc(C(F)(F)F)c1)C(C)C` .
> 10 µM

----------
- Tested on: LOX IMVI melanoma
- assay_overview: NCI tumour cell line growth inhibition, 48 h
This listing pairs molecules with measured TGI.

[
  {
    "molecule": "Cc1ccc(-n2cc(-c3ccc(Cl)cc3)c3c(=N)n(N)cnc32)cc1",
    "measure": "TGI",
    "result": "29.8 µM"
  },
  {
    "molecule": "Cc1ccc(S(=O)(=O)N2CCC(C(=O)O)(c3ccccc3)CC2)cc1",
    "measure": "TGI",
    "result": "> 100 µM"
  },
  {
    "molecule": "Cn1c(NC(=O)NC23CC4CC(CC(C4)C2)C3)nc2ccccc21",
    "measure": "TGI",
    "result": "> 100 µM"
  },
  {
    "molecule": "CC1CC(C)C(C(O)CC2CC(=O)N(c3ccccc3)C(=O)C2)C(O)C1 (stereo not given)",
    "measure": "TGI",
    "result": "> 100 µM"
  },
  {
    "molecule": "O=C1C2CC[C@@H]3C(=O)C(Cl)(Cl)[C@@H]3CCC2C1(Cl)Cl (stereo not given in full)",
    "measure": "TGI",
    "result": "> 100 µM"
  },
  {
    "molecule": "COC(=O)CC1CC2(C(=O)OC)c3[nH]c4ccccc4c3CCN2C1=O (stereo not given)",
    "measure": "TGI",
    "result": "> 100 µM"
  },
  {
    "molecule": "CC1=C(CNO)C2=C(C)C3(CC3)[C@@](C)(O)C(=O)C2=C1",
    "measure": "TGI",
    "result": "19 µM"
  },
  {
    "molecule": "COc1ccc(/C(CC2OC(=O)c3ccccc32)=N\\NC(N)=O)cc1 (stereo not given)",
    "measure": "TGI",
    "result": "> 100 µM"
  }
]

Request: TGI, test system LOX IMVI melanoma, entry `Cc1ccc(C2=C(Cl)C(=O)C(c3ccc(C)cc3)=C(Cl)C2=O)cc1`
> 100 µM

Request: TGI, test system LOX IMVI melanoma, entry `CC1=C2[C@@H](CC1)[C@]1(C)O[C@@](C3CC3)(C[C@H]1OC(=O)CO)[C@H]2OC(=O)/C=C/c1ccccc1`
31.8 µM

----------
- Tested on: HOP-62 NSCLC
- assay_overview: NCI tumour cell line growth inhibition, 48 h
Where a SMILES comes first, the peptide text is derived from it. The star is where a group is joined. Cbz = O=C(OCc1ccccc1)*; Boc = CC(C)(C)OC(=O)*; OSu = O=C1CCC(=O)N1O*; Bn = c1ccc(C*)cc1
measure: TGI

Name the recorded TGI for COc1ccc(C23OCC(Cc4cc(OC)c(OC)cc42)C3CO)cc1OC (stereo not drawn) .
> 100 µM

Name the recorded TGI for `N#Cc1c(N)nc(Sc2ccccc2N)c(C#N)c1-c1ccccc1` .
> 100 µM

Name the recorded TGI for C=C1CC/C=C(\C)CC[C@H](C(=C)C)[C@@H](O)/C=C(/CO)CCC1O (stereo partly drawn) .
> 100 µM

Name the recorded TGI for CC(C)(C)OC(=O)NC(Cc1ccc(OCc2ccccc2)cc1)C(=O)NC(CCCCNC(=O)OCc1ccccc1)C(=O)NC(CCCCNC(=O)OCc1ccccc1)C(=O)ON1C(=O)CCC1=O (stereo not drawn) (Boc-Tyr(Bn)-Lys(Cbz)-Lys(Cbz)-OSu; configuration not given here) .
> 100 µM

Name the recorded TGI for `O=C(Oc1ccc2c(c1)CN(Cc1ccccc1)CO2)c1ccccc1` .
38.6 µM

Name the recorded TGI for `O=C1/C(=C/c2ccc(Cl)cc2)Oc2ccccc21` .
53.3 µM

Name the recorded TGI for `CCOc1ccccc1NC(=O)C1=C(C)NC(C)=C(C(=O)Nc2ccccc2OCC)C1c1ccc([N+](=O)[O-])cc1` .
> 100 µM

Name the recorded TGI for CCCCCCCCCCCCOC1C(C(CC(=O)N2CCN(Cc3ccc4c(c3)OCO4)CC2)NS(=O)(=O)c2cc(Cl)cc(Cl)c2)OC2OC(C)(C)OC21 (stereo not drawn) .
> 100 µM
